# tested on: Luciferin 4-monooxygenase (Photinus pyralis) (UniProt P08659)
# Sequence (P08659 whole entry, looked up): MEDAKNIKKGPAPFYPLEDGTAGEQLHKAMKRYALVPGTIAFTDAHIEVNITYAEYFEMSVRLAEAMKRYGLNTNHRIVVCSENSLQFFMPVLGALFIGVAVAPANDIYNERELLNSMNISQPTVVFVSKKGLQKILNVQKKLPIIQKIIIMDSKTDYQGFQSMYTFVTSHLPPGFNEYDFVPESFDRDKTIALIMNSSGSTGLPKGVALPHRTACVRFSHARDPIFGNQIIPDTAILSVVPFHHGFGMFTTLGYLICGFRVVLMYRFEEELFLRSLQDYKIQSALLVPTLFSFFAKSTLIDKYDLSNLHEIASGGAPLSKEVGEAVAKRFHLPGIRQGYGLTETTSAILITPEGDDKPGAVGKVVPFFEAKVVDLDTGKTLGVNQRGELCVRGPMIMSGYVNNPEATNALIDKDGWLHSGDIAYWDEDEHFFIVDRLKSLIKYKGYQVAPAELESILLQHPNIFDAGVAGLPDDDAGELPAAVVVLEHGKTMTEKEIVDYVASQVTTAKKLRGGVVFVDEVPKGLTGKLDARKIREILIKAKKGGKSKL
# assay protocol: qHTS profiling assay for firefly luciferase inhibitor/activator using purifed enzyme and Km concentrations of substrates (counterscreen for miR-21 project); further: nearly all actives have a fitted effect of over 55% in size; further: potency means the concentration at half of the fitted maximal effect
# experimental conditions: purified FLuc, luminescence inhibition; series mostly up to 57.5 µM
Screen size: about 360,000 compounds; about 25,000 (6.9%) were called active. Roughly 9% stayed inconclusive and do not appear here. This is one part of a sample in which actives are shown more often than they occur.
observed property: Potency

Examples with answers:
INSERT INTO results (compound, assay_value) VALUES
  ('O=c1[nH]c(CN2CCOCC2)nc2cc(Cl)ccc12', 'inactive'),
  ('CCn1c(=O)c(=O)n(CC)c2cc(N3CCCCC3)c(NC(=O)c3ccc(Cl)cc3)cc21', 'inactive'),
  ('O=C1C(C=NCC2CCCO2)=C(O)c2ccccc21 (configuration not stated)', '19 µM (active)'),
  ('CN(C(=O)COc1nnc(-c2cccs2)c(-c2cccs2)n1)c1ccccc1', 'inactive'),
  ('CCCc1nnc(NC(=O)c2cccs2)s1', '16.9 µM (active)'),
  ('Cc1ccoc1C(=O)Nc1cccc(Oc2ccccc2)c1', '6.75 µM (active)'),
  ('NC(=O)Cc1nc2scc(-c3ccc(Cl)cc3)c2c(=O)[nH]1', 'inactive'),
  ('Cc1ccc(C)c(OCCC(=O)Nc2cccc(S(=O)(=O)N3CCCC3)c2)c1', 'inactive');

In: Returns the measured Potency for the input compound. Input: `Cc1ccc(C)c(N2CCN(C(=O)Cn3nc(C)c4sc5ccccc5c4c3=O)CC2)c1`
Out: inactive

In: Param item = `COc1ccc(NC(=O)c2ccco2)cc1NC(=O)c1ccc(C#N)cc1F` ; retrieve measured Potency.
Out: inactive

In: Report Potency for CSCCC(NC(=O)c1ccco1)C(=O)Nc1cc(C)ccn1 (configuration not stated) please.
Out: 15.1 µM (active)

In: # get_value(readout='Potency', item= `CCCN(C(=O)Cn1cc(S(=O)(=O)N2CCN(c3ccccc3F)CC2)c2ccccc2c1=O)c1cccc(C)c1` )
Out: inactive

In: Entry CN(C(=O)c1ccc2c(c1)N(Cc1cccc(Cl)c1)C(=O)c1ccccc1S2=O)C1CCCCC1 (configuration not stated) has what Potency?
Out: inactive

====

# tested on: Luciferin 4-monooxygenase (Photinus pyralis)
# assay protocol: qHTS profiling assay for firefly luciferase inhibitor/activator using purifed enzyme and Km concentrations of substrates (counterscreen for miR-21 project); further: nearly all actives have a fitted effect of over 55% in size
# experimental conditions: purified FLuc, luminescence inhibition; series mostly up to 57.5 µM
Out of some 360,000 compounds screened, about 25,000 (6.9%) were called active. About 9% were inconclusive and are not listed. Calls follow the shape of the dose curve; as a rule, active = well fitted inhibition curve with a large enough effect; inconclusive = small, poorly fitted or top-dose-only effect; inactive = flat fitted curve, though single readings scatter. The entries come from a sample that favours actives as a whole.
Hello, when you answer, please use one of the following outcomes: active, inactive

INSERT INTO measurements (compound, class_label) VALUES
  ('COc1ccc(-c2nc3ccccc3s2)cc1NC(=O)COc1ccccc1C', 'inactive'),
  ('Brc1ccc(-c2csc(N/N=C/c3ccc4c(c3)OCO4)n2)cc1', 'inactive'),
  ('C(=N\Nc1ccc2ccccc2n1)/c1ccc2c(c1)OCO2', 'active'),
  ('Cc1cc2c(cc3c(SCc4cccc(Cl)c4)nnc(C)n32)o1', 'inactive'),
  ('CCOC(=O)c1oc2ccc(S(=O)(=O)n3nc(-c4ccccc4OC)cc3N)cc2c1C', 'inactive');

In: Could you please tell me the result logged for `O=C(O)Cc1ccc(NCc2ccccc2Cl)cc1` in this assay?
Out: active

In: Which result was noted for this compound in the test: `O=C(Cc1ccc(F)cc1)N/N=C/c1ccc2c(c1)OCO2`
Out: inactive

In: Hello, I am checking results. What call was entered for `Cc1noc(C)c1/C=N/Nc1ccc2ccccc2n1` ?
Out: active

In: What is the recorded call for this compound in the test? `CCOc1ccccc1NC(=O)CN1CCCN(Cc2cccc(Cl)c2)S1(=O)=O`
Out: inactive

In: Name the outcome recorded for `COC(=O)c1ccc(NCC(=O)N2CCCCCC2)cc1` in the assay.
Out: inactive

In: Please indicate how the test categorized COC(=O)C1[C@H]2SC(C)(C)C(C(=O)OC)N2C(=O)N1Cc1nc2ccccc2s1 (stereo partly specified) .
Out: inactive

Recorded values, source PubChem BioAssay AID588342.
